Catalogue of HepG2-Cell Viability (%) readings, one per entry.
- Tested on: human liver carcinoma HepG2 cells
- test_method_notes: MTT cytotoxicity assay against HepG2 cells
- Format: cell-based
- experimental_conditions: concentration LogC -0.41 (µM)
Number only, in %; omit the unit.

>>> observed_result("COc1ccc(Br)c2cc(C(=O)O)c(=O)oc12 [Compound 9]")
73.23
>>> observed_result("COc1cccc2cc(C(=O)NC(C)=O)c(=O)oc12 [Compound 6, N-acetyl 8-methoxycoumarin-3-carboxamide]")
59.86
>>> observed_result("COc1ccc(Br)c2cc(C(=O)NC(C)=O)c(=O)oc12 [Compound 7]")
77.18

Next, consider the following compound.
**Query** Param item = COc1cccc2cc(C(N)=O)c(=O)oc12 [Compound 4, 8-Methoxycoumarin-3-carboxamide] ; retrieve measured HepG2-Cell Viability (%).
**Result** 75.81
